- Target: Voltage-gated potassium channel subunit beta-2 (Rattus norvegicus)
- Procedure details: KvBeta positive modulators, primary screen, biochemical, NADPH fluorescence (AID 623);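 further: fluorescence intensity change per second fitted from 20 to 320 s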
- Condition summary: Recombinant KvBeta, NADPH fluorescence decrease slope, 10 min; at 10 µM; stronger effect = lower value
Examples of molecules with documented NADPH fluorescence slope follow.
Quick one: just the number, no unit, thanks!

Example entries and their recorded answers appear below.
>  <Molecule>
COC(=O)c1ccccc1OCc1cccc(C)n1

>  <Target>
Voltage-gated potassium channel subunit beta-2 (Rattus norvegicus)

>  <Experimental value>
-3.1e-05

$$$$
>  <Molecule>
Cc1nc(N2CCc3ccccc32)[nH]c(=O)c1CCC(C)C

>  <Target>
Voltage-gated potassium channel subunit beta-2 (Rattus norvegicus)

>  <Experimental value>
-4.2e-05

$$$$
>  <Molecule>
CC(=O)c1cc(Cl)ccc1OC(=O)c1ccco1

>  <Target>
Voltage-gated potassium channel subunit beta-2 (Rattus norvegicus)

>  <Experimental value>
-9e-05

$$$$
>  <Molecule>
CCOc1ccc(NC(=O)c2ccc3c(c2)N(Cc2ccc(F)cc2)C(=O)CS3=O)cc1 (stereo unspecified)

>  <Target>
Voltage-gated potassium channel subunit beta-2 (Rattus norvegicus)

>  <Experimental value>
-2.5e-05

$$$$
>  <Molecule>
COc1ccc(S(=O)(=O)N2CCC(C(=O)c3ccc4c(c3)OCCO4)CC2)cc1

>  <Target>
Voltage-gated potassium channel subunit beta-2 (Rattus norvegicus)

>  <Experimental value>
-8e-05

$$$$
>  <Molecule>
CCCCc1nc2sc3c(c2c(=O)[nH]1)CCC3

>  <Target>
Voltage-gated potassium channel subunit beta-2 (Rattus norvegicus)

>  <Experimental value>
-4e-05

$$$$

The measured NADPH fluorescence slope associated with Cc1ccc(-n2ncc3c(N4CCCC(C)C4)ncnc32)c(C)c1 (stereo unspecified) reads -3.3e-05

Lab note: CCOc1ccc(N=C(NC#N)SCC(=O)NC2CC2)cc1 gave NADPH fluorescence slope of -4.8e-05

The value of NADPH fluorescence slope measured for the molecule COc1ccc(OCCN2C(=O)NC(C)(c3ccc(C)cc3)C2=O)cc1 (stereo unspecified) turned out to be -6.9e-05

What the record says about O=C(CSc1nnc(COc2ccc(Cl)cc2)o1)N1CCN(c2ccccc2)CC1 : NADPH fluorescence slope is -3.2e-06

Measured NADPH fluorescence slope, Cn1c(SCC(=O)N2CCOCC2)nnc1-c1cnccn1 : 8e-06
